Source listed as patent US20210032312A1.

# assayed_system: T1, human CD8A-Fc (recombinant human CD8 alpha fused to Fc fragment of human IgG1) (human, UniProt P01732 22-182, limits assumed)
# T1 construct: SPR ligand, captured by goat anti-human Fc; also called hCD8A-Fc; recombinant CD8 alpha; not shown: linker with flag (and polyhistidine) tag and Fc fragment of human IgG1; depends on which of the two constructs was used
# T1 sequence (P01732 22-182 limits assumed): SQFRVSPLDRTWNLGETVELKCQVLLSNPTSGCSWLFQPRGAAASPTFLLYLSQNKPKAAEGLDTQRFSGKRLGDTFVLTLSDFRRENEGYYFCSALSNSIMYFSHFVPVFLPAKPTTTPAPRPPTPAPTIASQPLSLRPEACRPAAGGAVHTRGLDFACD
# test_summary: SPR (ProteOn), captured hCD8A-Fc, heterogeneous ligand fit, lower affinity population
property_measured: koff (s⁻¹)
State the answer as a number, implicitly in s⁻¹.

As a guide, the following entries are already answered.
Challenge: Report koff for P283AR9P1362_D6 (designed binder, FN3 domain (Centyrin); purified as His-tagged protein, tag not in the entry) LPAPKNLVVSRVTEDSARLSWAKRPGAFDSFLIQYQESEKVGEAIVLTVPGSERSYDLTGLKPGTEYTVSIYGVDVKYDIDSRPISSNPLSAIFTT please.
Response given: 3.12e-05

Challenge: Also need P282DR9P1359_F5 (designed binder, FN3 domain (Centyrin); purified as His-tagged protein, tag not in the entry) LPAPKNLVVSRVTEDSARLSWTAPDAAFDSFQIAYPEWPPPGEAIVLTVPGSERSYDLTGLKPGTEYFVIIQGVKGGVESWPLSAIFTT , thanks.
Response given: 6.6e-05

Challenge: Param item: P282DR9P1359_G7 (designed binder, FN3 domain (Centyrin); purified as His-tagged protein, tag not in the entry) LPAPKNLVVSRVTEDSARLSWTAPDAAFDSFAITYIEKEHIEDGEAIVLTVPGSERSYDLTGLKPGTEYWVPIWGVKGGANSWPLSAIFTT
Response given: 5.51e-05

Challenge: Also check P282DR9P1359_C5 (designed binder, FN3 domain (Centyrin); purified as His-tagged protein, tag not in the entry) LPAPKNLVVSRVTEDSARLSWTAPDAAFDSFWITYPEWPDPGGEAIVLTVPGSERSYDLTGLKPGTEYFVVIYGVKGGEIYSPLSAIFTT
Response given: 0.000127

Challenge: What about P282ER9P1360_C8 (designed binder, FN3 domain (Centyrin); purified as His-tagged protein, tag not in the entry) LPAPKNLVVSRVTEDSARLSWTAPDAAFDSFGILYYEPVDSGEAITLPVPGSERSYDLTGLKPGTEYWVVITGVKGGAPSTPLGTIFTT ?
Response given: 9.52e-05

In the following, a different binder is considered.
Challenge: Reported koff for P282DR9P1359_F7 (designed binder, FN3 domain (Centyrin); purified as His-tagged protein, tag not in the entry) LPAPKNLVVSRVTEDSARLSWTAPDAAFDSFAIAYPEWPPQGEAIVLTVPGSERSYDLTGLKPGTEYFVVIYGVKGGSYSAPLSAIFTT : what is it?
Response given: 0.000365
